- System: A549
- experiment-description: MTS cell viability assay
- Type: cell-based, human
- condition-label: 96 h, read-out: Calculated IC50 after daily treatment for 96 h
IC50 under 8 µM gets satisfied, anything at or over 8 µM gets not satisfied.

molecule: CSc1nc(Nc2cccc(F)c2)c2cnn(CC(Cl)c3ccc(F)cc3)c2n1 (centres unmarked) [Si93]
label-class: satisfied

molecule: BrC(Cn1ncc2c(N3CCOCC3)ncnc21)c1ccccc1 (centres unmarked) [Si51]
label-class: not satisfied

molecule: CSc1nc(NCCc2ccccc2)c2cnn(CC(Cl)c3ccc(F)cc3)c2n1 (centres unmarked) [Si66]
label-class: satisfied

molecule: Cc1nc(Nc2ncc(C(=O)Nc3c(C)cccc3Cl)s2)cc(N2CCN(CCO)CC2)n1 [Dasatinib, reference compound]
label-class: satisfied

molecule: CSc1nc(NCc2ccccc2)c2cnn(CC(Cl)c3ccccc3)c2n1 (centres unmarked) [Si34]
label-class: not satisfied

molecule: Fc1ccc(C(Cl)Cn2ncc3c(Nc4cccc(Cl)c4)ncnc32)cc1 (centres unmarked) [Si104]
label-class: satisfied

molecule: CSc1nc(NCc2ccccc2)c2cnn(CC(Br)c3ccccc3)c2n1 (centres unmarked) [Si81]
label-class: not satisfied

molecule: CCCCNc1nc(SCC)nc2c1cnn2CC(Cl)c1ccccc1 (centres unmarked) [Si20]
label-class: not satisfied

molecule: Fc1ccccc1CNc1ncnc2c1cnn2CC(Cl)c1ccc(Br)cc1 (centres unmarked) [Si162]
label-class: satisfied

molecule: CSc1nc(NCCc2ccc(Cl)cc2)c2cnn(CC(Cl)c3ccccc3)c2n1 (centres unmarked) [Si57]
label-class: not satisfied

molecule: CCN(CC)c1nc(SC)nc2c1cnn2CC(Cl)c1ccccc1 (centres unmarked) [Si27]
label-class: not satisfied

molecule: CSc1nc(NCCc2ccccc2)c2cnn(C=Cc3ccccc3)c2n1 [Si40]
label-class: not satisfied

molecule: CSc1nc(NCc2ccccc2)c2cnn(CC(Cl)c3ccc(Cl)cc3)c2n1 (centres unmarked) [Si70]
label-class: not satisfied

* * *

- System: CaCo2
- experiment-description: Cell cycle analysis by flow cytometry
- Assay type: cell-based, human
- condition-label: IC50 concentration, 96 h
Property: Cells in G1 phase; scope: individual compounds

compound: Fc1ccccc1CNc1ncnc2c1cnn2CC(Cl)c1ccc(Br)cc1 (stereo not shown) [Si162]
Cells in G1 phase / %: 41.3
--
compound: CSc1nc(NCCc2ccc(Cl)cc2)c2cnn(CC(Cl)c3ccccc3)c2n1 (stereo not shown) [Si57]
Cells in G1 phase / %: 41.7
--
compound: CC(C)Sc1nc(NCCc2ccccc2)c2cnn(CC(Cl)c3ccccc3)c2n1 (stereo not shown) [Si142]
Cells in G1 phase / %: 55.6
--
compound: CSc1nc(NCCc2ccccc2)c2cnn(C=Cc3ccccc3)c2n1 [Si40]
Cells in G1 phase / %: 52.5

* * *

- Tested on: CaCo2
- experiment-description: MTS cell viability assay
- Format: cell-based, human
- condition-label: 24 h, read-out: Calculated IC50 after single treatment for 24 h
pIC50: −log10 of the molar value.
Each item that follows carries a reported pIC50.
assay-metric: pIC50

compound: CSc1nc(NCCc2ccc(Cl)cc2)c2cnn(CC(Cl)c3ccccc3)c2n1 (stereo not drawn)
assay-metric: pIC50
result: 4.11
--
compound: CSc1nc(NCCc2ccccc2)c2cnn(C=Cc3ccccc3)c2n1
assay-metric: pIC50
result: < 4.00
--
compound: BrC(Cn1ncc2c(N3CCOCC3)ncnc21)c1ccccc1 (stereo not drawn)
assay-metric: pIC50
result: < 4.00
